- ASSAY SUMMARY: Pharmacokinetic studies in rats (LPV plasma levels by LC-MS/MS)
- Type: in vivo
- EXPERIMENTAL CONTEXT: male, Sprague-Dawley, rat, plasma, iv; rats, 10 mg/kg LPV
- Method: Sprague-Dawley male rats weighing 270-300 g were used and were separated randomly into seven groups with 4-8 animals per group to evaluate the biofate of LPV in different formulations. […] The blood samples were treated by protein precipitation in methanol, following 15 min centrifuge at 10,000 rpm. […] Detection and quantification were carried out by multiple-reaction monitoring with transitions from m/z 629.3 to 156 for LPV and from m/z 313.1 to 246 for QX. […]

COMPOUND: Cc1cccc(C)c1OCC(=O)N[C@@H](Cc1ccccc1)[C@@H](O)C[C@H](Cc1ccccc1)NC(=O)[C@H](C(C)C)N1CCCNC1=O [LPV]
clearance: 21.1 mL/min/kg

Values from patent US20160235749A1
